In this section, each of the compounds is paired with its reported IC50.
# experimentalTarget: ROCK2 (Homo sapiens)
# Sequence (O75116 whole entry, species assumed): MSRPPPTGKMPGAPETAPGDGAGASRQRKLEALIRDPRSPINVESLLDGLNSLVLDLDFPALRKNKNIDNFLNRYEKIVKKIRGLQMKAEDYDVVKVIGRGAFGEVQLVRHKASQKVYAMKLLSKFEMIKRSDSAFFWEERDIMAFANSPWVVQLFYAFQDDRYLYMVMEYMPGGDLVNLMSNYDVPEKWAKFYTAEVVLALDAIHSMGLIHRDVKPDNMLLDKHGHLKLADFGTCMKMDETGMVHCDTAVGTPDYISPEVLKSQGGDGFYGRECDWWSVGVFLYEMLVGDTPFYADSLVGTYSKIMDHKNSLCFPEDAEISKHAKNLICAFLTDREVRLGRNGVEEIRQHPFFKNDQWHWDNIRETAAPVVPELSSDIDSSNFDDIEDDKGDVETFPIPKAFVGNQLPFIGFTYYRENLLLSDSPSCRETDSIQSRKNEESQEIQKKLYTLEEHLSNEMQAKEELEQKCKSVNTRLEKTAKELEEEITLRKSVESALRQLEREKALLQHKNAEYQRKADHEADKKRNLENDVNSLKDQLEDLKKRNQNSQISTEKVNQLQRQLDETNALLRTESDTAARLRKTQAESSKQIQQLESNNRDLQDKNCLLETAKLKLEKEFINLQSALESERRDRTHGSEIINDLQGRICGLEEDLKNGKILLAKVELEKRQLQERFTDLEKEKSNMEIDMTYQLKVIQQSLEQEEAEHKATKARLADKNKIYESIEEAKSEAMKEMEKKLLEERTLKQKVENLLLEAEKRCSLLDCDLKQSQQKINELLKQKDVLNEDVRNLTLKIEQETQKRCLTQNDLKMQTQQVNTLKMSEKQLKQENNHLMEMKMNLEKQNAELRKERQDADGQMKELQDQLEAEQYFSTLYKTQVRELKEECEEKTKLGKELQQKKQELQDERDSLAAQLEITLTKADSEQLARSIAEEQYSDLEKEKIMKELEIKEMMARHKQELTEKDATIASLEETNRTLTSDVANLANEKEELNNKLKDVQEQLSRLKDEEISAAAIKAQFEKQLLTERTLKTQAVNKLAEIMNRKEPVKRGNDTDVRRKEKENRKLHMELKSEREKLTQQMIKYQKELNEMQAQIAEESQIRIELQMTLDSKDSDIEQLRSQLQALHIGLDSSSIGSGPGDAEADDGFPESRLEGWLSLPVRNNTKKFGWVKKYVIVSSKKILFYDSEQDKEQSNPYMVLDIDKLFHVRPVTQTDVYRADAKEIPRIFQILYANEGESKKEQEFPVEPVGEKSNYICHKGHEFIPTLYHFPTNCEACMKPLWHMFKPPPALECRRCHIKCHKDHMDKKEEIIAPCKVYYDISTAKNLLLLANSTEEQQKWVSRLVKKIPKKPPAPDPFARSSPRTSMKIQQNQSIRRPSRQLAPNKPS

// solved cases for IC50 follow
[in] Requested read-out IC50, target or system ROCK2 (Homo sapiens), entry COc1cccc(CN2CC(=O)N(c3ccc(-c4cn[nH]c4)cc3)C2=O)c1 [Example 80]
[out] 20.1 to 200 nM

[in] And then COc1cc(CN2CCN(c3ccc(-c4cn[nH]c4)c(F)c3)C2=O)ccc1F [Example 434] , what is it?
[out] 2.1 to 20 nM

[in] And then COc1cccc(C(C)n2ccn(-c3ccc(-c4ccncc4F)cc3)c2=O)c1 (single isomer, unassigned) [Example 387] , what is it?
[out] 20.1 to 200 nM

More entries:
[in] Requested read-out IC50, target or system ROCK2 (Homo sapiens), entry O=C1N(Cc2ccc(F)cc2)CCN1c1ccc(-c2cn[nH]c2)cc1 [Example 5]
[out] 20.1 to 200 nM
